# Protocol Text: basal RPMI8226 viability, no added stimulus, profiling panel, cell-based, calcein-AM fluorescence, 48 h, PK04 Diversity Set (AID 1166);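 also: cells grown under basal conditions without added stimulus; test concentration not given here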
# Reported Conditions: RPMI8226 myeloma viability, higher = more signal
Assay Readout: z-score

{"columns": ["Item Smiles", "Measured Value"],
 "data": [
  ["O=C(O)[C@@H]1Cc2c([nH]c3ccccc23)[C@@H](c2ccccc2)N1", 0.519],
  ["Cc1ccc(S[C@]2(C(=O)NC(C)C)CC(=O)N(Cc3cc(C(F)(F)F)cc(C(F)(F)F)c3)[C@@H]2c2ccc(CO)cc2I)cc1", -2.24],
  ["CCCC[C@@H]1C[C@H]1[C@@H](NC(=O)c1cccs1)c1ccc(Cl)cc1", -2.99],
  ["O=C1c2ccccc2[C@@]2(Cc3ccccc3N(CC(F)(F)F)C2=O)[C@H](c2ccc(CO)cc2)N1C1CCCCC1", -1.27],
  ["CCCC=C(CCC)[C@@H](NC(=O)c1ccccc1)c1ccccc1", -0.246],
  ["C[C@@H]1CC[C@H]2C(=O)N3CCC[C@H]3C(=O)N2[C@H]1c1ccc(Br)cc1", 0.0262],
  ["O=C(NCc1ccccc1)c1ccc(Br)cc1[N+](=O)[O-]", 0.287]
]}
